- Tested On: T1, purified interference factor(s), Donor A
- T1 construct: also called interference in serum from Donor A
- Procedure Details: SPR, interference factor immobilized
Class definitions on % of binding of reference (=100%): group 1: < 2%; group 2: ≥ 2% and < 80%; group 3: ≥ 80%

Solved entries:
INSERT INTO assay_data (binder, class_label) VALUES
  ('SEQ ID NO: 89 (VHH, Ex. 8) VHH: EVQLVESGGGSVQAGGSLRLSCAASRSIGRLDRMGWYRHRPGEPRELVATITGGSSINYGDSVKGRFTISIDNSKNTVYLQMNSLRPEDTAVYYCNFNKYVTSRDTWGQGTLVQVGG', 'group 2'),
  ('SEQ ID NO: 65 (VHH, Ex. 8) VHH: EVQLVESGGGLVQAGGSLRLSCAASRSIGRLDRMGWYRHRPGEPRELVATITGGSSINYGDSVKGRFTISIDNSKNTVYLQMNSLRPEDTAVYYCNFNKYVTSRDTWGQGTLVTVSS', 'group 2');

Just checking, what class would you give SEQ ID NO: 67 (VHH, Ex. 8) VHH: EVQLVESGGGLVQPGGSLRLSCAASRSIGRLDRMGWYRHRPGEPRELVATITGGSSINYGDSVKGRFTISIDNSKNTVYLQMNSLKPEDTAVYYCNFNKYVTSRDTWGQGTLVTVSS here?
group 3

Looking at SEQ ID NO: 73 (VHH, Ex. 8; S112G, S113G) VHH: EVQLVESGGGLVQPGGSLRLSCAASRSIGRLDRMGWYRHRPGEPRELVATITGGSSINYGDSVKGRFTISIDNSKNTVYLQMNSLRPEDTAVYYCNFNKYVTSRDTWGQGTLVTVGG , which class would you pick?
group 2

For this binder, which bin applies? SEQ ID NO: 75 (VHH, Ex. 8) VHH: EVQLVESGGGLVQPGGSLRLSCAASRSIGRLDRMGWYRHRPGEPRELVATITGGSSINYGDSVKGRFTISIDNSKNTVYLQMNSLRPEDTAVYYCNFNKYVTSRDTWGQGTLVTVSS
group 1

Looking at SEQ ID NO: 78 (VHH, Ex. 8) VHH: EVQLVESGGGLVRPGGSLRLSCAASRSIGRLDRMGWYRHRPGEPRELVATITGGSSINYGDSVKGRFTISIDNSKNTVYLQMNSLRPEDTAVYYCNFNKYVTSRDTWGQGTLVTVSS , which class would you pick?
group 3

Classify this binder: SEQ ID NO: 84 (VHH, Ex. 8) VHH: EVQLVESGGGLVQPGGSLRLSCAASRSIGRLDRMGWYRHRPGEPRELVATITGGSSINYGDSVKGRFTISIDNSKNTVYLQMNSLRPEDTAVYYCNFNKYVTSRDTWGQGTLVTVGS
group 3

Place this binder in its band: SEQ ID NO: 88 (VHH, Ex. 8; L11S, T110Q) VHH: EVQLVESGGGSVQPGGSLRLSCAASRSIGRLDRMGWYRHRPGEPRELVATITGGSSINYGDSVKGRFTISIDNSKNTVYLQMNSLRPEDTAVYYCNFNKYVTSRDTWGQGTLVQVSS
group 1
